target: HIV-1 integrase / human LEDGF/p75 complex; assay: blockers of LEDGF/p75-dependent integrase activity – biochemical, TR-FRET, dose response (AID 1053172); details: TR-FRET integrase-LEDGF/p75 DNA integration
Active and inactive are the calls of the source. No rule for the calls is given here.
The reply should be one of these categories: 1 (active), -1 (inactive)

Example entries and their recorded answers appear below.
compound | assayed_system | assigned_class
Oc1ccc(C=Nc2ccc(N3CCOCC3)cc2)c(O)c1 | HIV-1 integrase / human LEDGF/p75 complex | -1
O=C(NN1C(=O)/C(=C/c2ccc(O)c(O)c2)SC1=S)c1ccccc1 | HIV-1 integrase / human LEDGF/p75 complex | 1
S=c1[nH]nc(-c2ccco2)n1/N=C/C=C/c1ccco1 | HIV-1 integrase / human LEDGF/p75 complex | -1
COc1c(O)cc2oc(-c3ccc(O)c(O)c3)cc(=O)c2c1O | HIV-1 integrase / human LEDGF/p75 complex | 1
C=CCn1c(SCC(=O)c2ccc(O)c(O)c2)nnc1-c1cccnc1 | HIV-1 integrase / human LEDGF/p75 complex | 1
O=c1cc(-c2ccc(O)c(O)c2)oc2cc(O)c(C3OC(CO)C(O)C(O)C3O)c(O)c12 (stereo unspecified) | HIV-1 integrase / human LEDGF/p75 complex | 1
O=[N+]([O-])c1cc(Br)c(O)c(C=Nc2ccc(N3CCOCC3)cc2)c1 | HIV-1 integrase / human LEDGF/p75 complex | -1
COCCCNC(=O)/C(C#N)=C/c1ccc(OCC(=O)O)c(OC)c1 | HIV-1 integrase / human LEDGF/p75 complex | 1
C=CC1=C(C(=O)O)N2C(=O)[C@@H](NC(=O)/C(=N/OCC(=O)O)c3csc(N)n3)[C@H]2SC1 | HIV-1 integrase / human LEDGF/p75 complex | 1
NC1=C(Cl)C(=O)c2ccc(S(N)(=O)=O)cc2C1=O | HIV-1 integrase / human LEDGF/p75 complex | 1

Query :: Test call, this compound: COc1ccc(NC(=O)CSc2sc3c(O)cc(=O)[nH]c3c2C#N)c(OC)c1
Result :: -1

Query :: Test call, this compound: CC1OC(Oc2c(-c3cc(O)c(O)c(O)c3)oc3cc(O)cc(O)c3c2=O)C(O)C(O)C1O (stereo unspecified)
Result :: 1

Query :: Test call, this compound: C/C(=N/NC(=O)c1cc(O)c(O)c(O)c1)c1ccc([N+](=O)[O-])cc1
Result :: 1

Query :: Test call, this compound: CN(C)c1ccc2cc(S(=O)(=O)O)cc(O)c2c1
Result :: 1

Query :: Test call, this compound: O=C(O)c1ccc2nc(-c3ccco3)c(-c3ccco3)nc2c1
Result :: 1

Query :: Test call, this compound: O=C(O)C1Nc2c(O)cccc2C2C=CCC12 (stereo unspecified)
Result :: 1

Query :: Test call, this compound: O=C(NN1C(=O)/C(=C/C=C/c2ccco2)SC1=S)c1ccccc1O
Result :: 1

Query :: Test call, this compound: O=C(CCCN1C(=O)/C(=C/c2ccco2)SC1=S)Nc1ccccc1C(=O)O
Result :: 1

Query :: Test call, this compound: O=C(CSc1nc2ccccc2o1)N/N=C/c1ccc(O)c(O)c1
Result :: 1

Query :: Test call, this compound: O=C1OC(c2cccs2)=N/C1=C/c1ccc(-c2cccc(C(=O)O)c2)o1
Result :: -1
